- Test system: Plasma
- TEST_SUMMARY: Plasma concentration in human at 1600 mg
- Assay type: ADME, cell-free
ATTRIBUTE_MEASURED: concentration (µM)
The reply should be a number in µM, with the unit left off.

Please report concentration for the following molecule: O=C(O[C@@H]1Cc2c(O)cc(O)cc2O[C@@H]1c1cc(O)c(O)c(O)c1)c1cc(O)c(O)c(O)c1 [EPIGALOCATECHIN GALLATE]
11.3

====

- Test system: CHO
- TEST_SUMMARY: Cytotoxicity against CHO cells expressing OATP1B1*1b after 48 hrs by […] CellTiter-Glo assay
- Format: functional, cell-based
- CONDITION_CONTEXT: Cricetulus griseus
For each entry below, report its IC50 value.
The reply should be a number in µM, with the unit left off.

Please report IC50 for the following compound: O=C(Oc1cc(-c2oc3cc(O)cc(O)c3c(=O)c2O)ccc1O)c1cc(O)c(O)c(O)c1
7.9

Please report IC50 for the following compound: CCCOc1cc(O)cc2oc(-c3ccc(O)c(O)c3)c(O)c(=O)c12
42.6

Please report IC50 for the following compound: O=C(Oc1c(-c2ccc(O)c(O)c2)oc2cc(O)cc(O)c2c1=O)c1cc(O)c(O)c(O)c1
3.5

Please report IC50 for the following compound: O=C(O[C@@H]1Cc2c(O)cc(O)cc2O[C@@H]1c1cc(O)c(O)c(O)c1)c1cc(O)c(O)c(O)c1 [EPIGALOCATECHIN GALLATE]
7.7

====

For each entry below, report its pIC50 value.
- System: CHO
- TEST_SUMMARY: Cytotoxicity against wild type CHO cells after 48 hrs by […] CellTiter-Glo assay
- Assay type: cell-based, Cricetulus griseus
- CONDITION_CONTEXT: Cricetulus griseus, CHO
Interpret pIC50 as the negative base-10 log of the concentration measured in mol/L.

Please report pIC50 for the following molecule: CCCOc1cc(O)cc2oc(-c3ccc(O)c(O)c3)c(O)c(=O)c12
3.95

Please report pIC50 for the following molecule: O=C(O[C@@H]1Cc2c(O)cc(O)cc2O[C@@H]1c1cc(O)c(O)c(O)c1)c1cc(O)c(O)c(O)c1 [EPIGALOCATECHIN GALLATE]
3.57
